# measured-on: ERα (Homo sapiens, UniProt P03372)
# Construct: expressed in transfected cells
# Sequence (P03372 whole entry, species assumed): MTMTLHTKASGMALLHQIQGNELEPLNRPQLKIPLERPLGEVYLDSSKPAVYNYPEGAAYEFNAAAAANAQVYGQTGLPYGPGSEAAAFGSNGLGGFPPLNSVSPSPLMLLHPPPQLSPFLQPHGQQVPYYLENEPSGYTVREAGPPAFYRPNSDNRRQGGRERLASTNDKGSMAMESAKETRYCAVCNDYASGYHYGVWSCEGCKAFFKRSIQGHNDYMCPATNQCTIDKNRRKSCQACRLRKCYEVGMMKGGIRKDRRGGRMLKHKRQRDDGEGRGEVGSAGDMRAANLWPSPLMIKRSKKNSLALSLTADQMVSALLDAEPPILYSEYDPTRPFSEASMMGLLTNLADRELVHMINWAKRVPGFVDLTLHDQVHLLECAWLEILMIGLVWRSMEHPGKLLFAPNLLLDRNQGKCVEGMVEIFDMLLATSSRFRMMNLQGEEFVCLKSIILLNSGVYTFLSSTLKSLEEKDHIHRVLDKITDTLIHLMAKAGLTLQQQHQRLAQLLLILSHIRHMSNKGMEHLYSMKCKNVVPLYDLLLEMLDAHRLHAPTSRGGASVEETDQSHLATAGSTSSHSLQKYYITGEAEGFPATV
# experimental-details: Counterscreening, Firefly signal with ERα transient transfection (Firefly_ERa)
# Format: cell-based
# measurement-context: Table 15; 2 uM
property-name: Firefly ERalpha transient, cmpd/DMSO (mean)

* COc1cccc(-c2noc(Cn3nccc(Cl)c3=O)n2)c1 | 2.2
* CC(=O)Nc1ccc(Br)c2nonc12 | 1.0
* COc1ccc(-c2noc(Cn3ncc4ccccc4c3=O)n2)cc1 | 1.3
* CCOC(=O)c1cnc2c(C)cc(C)cc2c1NCCCN1CCCCC1 [Compound Z9] | 2.2
* CCOC(=O)c1cnc2c(C)cc(C)cc2c1NCc1ccc(Cl)cc1 | 1.1

----------
# measured-on: NR2F6 (Homo sapiens, UniProt P10588)
# Construct: expressed in transfected cells; also transient transfection
# experimental-details: NR2F6 agonist screening, Firefly signal cmpd/DMSO
# Format: cell-based
# measurement-context: C11 analogs follow set (Tables 2-10), repeat 2
Please respond with met when measured Firefly, cmpd/DMSO repeat 2 is strictly beneath 5, and with not met in all other cases.

• COc1cccc(S(=O)(=O)c2cc3cc(Br)ccc3oc2=O)c1 = met
• O=c1oc2ccc(Cl)cc2cc1S(=O)(=O)c1ccccc1 = not met
• O=C(NCc1ccccc1)c1ccc2oc(=O)c(S(=O)(=O)c3ccccc3)cc2c1 = not met
• O=c1oc2ccccc2cc1S(=O)(=O)c1ccc(Cl)cc1 = met
• COc1ccc2cc(S(=O)(=O)c3cccc(Cl)c3)c(=O)oc2c1 = met
• COc1ccc2cc(S(=O)(=O)c3ccc(C)c(Cl)c3)c(=O)oc2c1 = met
• Cc1ccc(S(=O)(=O)c2cc3cc(C(=O)Nc4cccc(C)c4C)ccc3oc2=O)cc1 = not met
• COc1ccc(S(=O)(=O)c2cc3ccc(OC)cc3oc2=O)cc1 = met
• COc1ccc2oc(=O)c(S(=O)(=O)c3ccc(F)c(Cl)c3)cc2c1 = met

----------
# measured-on: NR2F6 (Homo sapiens)
# Construct: expressed in transfected cells; also transient transfection
# Sequence (P10588 1-404): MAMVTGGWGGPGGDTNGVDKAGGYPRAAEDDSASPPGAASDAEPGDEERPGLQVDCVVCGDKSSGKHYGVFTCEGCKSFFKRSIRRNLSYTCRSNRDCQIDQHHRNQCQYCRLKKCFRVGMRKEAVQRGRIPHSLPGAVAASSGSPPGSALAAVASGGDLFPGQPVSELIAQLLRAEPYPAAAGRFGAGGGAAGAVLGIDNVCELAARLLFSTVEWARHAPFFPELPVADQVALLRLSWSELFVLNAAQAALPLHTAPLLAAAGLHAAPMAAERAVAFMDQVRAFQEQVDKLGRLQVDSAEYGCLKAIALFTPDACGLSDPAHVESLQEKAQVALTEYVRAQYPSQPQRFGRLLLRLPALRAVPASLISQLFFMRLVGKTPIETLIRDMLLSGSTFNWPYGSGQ
# experimental-details: NR2F6 agonist screening, Firefly signal cmpd/DMSO
# Type: cell-based
# measurement-context: Table 13; repeat 2
Values of Firefly, cmpd/DMSO repeat 2 greater than or equal to 10 map to class 1; values below map to class 0.

* COc1cccc(NC(=O)c2ccc3oc(=O)c(S(=O)(=O)c4ccc(F)cc4)cc3c2)c1 | class 1
* Cc1ccc(S(=O)(=O)c2cc3cc(Br)ccc3oc2=O)cc1 | class 1
* COC(=O)c1ccc2oc(=O)c(S(=O)(=O)c3ccc(F)cc3)cc2c1 | class 1
* O=c1oc2ccc([N+](=O)[O-])cc2cc1S(=O)(=O)c1ccc(F)cc1 | class 1
* O=c1oc2ccc(Cl)cc2cc1S(=O)(=O)c1cc(F)cc(F)c1 | class 0
* CC(C)(C)c1ccc(S(=O)(=O)c2cc3cc(Br)ccc3oc2=O)cc1 | class 0
* Cc1cc(S(=O)(=O)c2cc3cc(F)cc(F)c3oc2=O)ccc1F | class 1
* COc1ccc(S(=O)(=O)c2cc3cc(Br)ccc3oc2=O)cc1OC | class 1
* O=c1oc2ccc([N+](=O)[O-])cc2cc1S(=O)(=O)c1ccccc1 | class 1
* O=c1oc2ccc(Cl)cc2cc1S(=O)(=O)c1ccccc1F | class 0
* COc1cccc(NC(=O)c2ccc3oc(=O)c(S(=O)(=O)c4ccc(C)cc4)cc3c2)c1 | class 1
* Cc1ccc(S(=O)(=O)c2cc3cc(C(=O)Nc4cc(C)cc(C)c4)ccc3oc2=O)cc1 | class 1
* COc1ccc2oc(=O)c(S(=O)(=O)c3ccc(C(C)(C)C)cc3)cc2c1 | class 0
* O=c1oc2ccccc2cc1S(=O)(=O)c1ccc(F)c(Cl)c1 | class 1
* COc1ccc2oc(=O)c(S(=O)(=O)c3cccc(Cl)c3)cc2c1 | class 0
* O=c1oc2ccc(Cl)cc2cc1S(=O)(=O)c1cccc(F)c1 | class 1
* Cc1ccc(S(=O)(=O)c2cc3cc(Cl)ccc3oc2=O)cc1Cl | class 0
* O=C(NCCc1ccccc1)c1ccc2oc(=O)c(S(=O)(=O)c3ccccc3)cc2c1 | class 1
